# Assay system: human Dock5 (Homo sapiens)
# Construct: plasmid expressing the catalytic DHR2 domain of mouse or human Dock5; expressed in transfected cells; host or cells: 293T cells
# Sequence (Q9H7D0 1231-1642 limits assumed): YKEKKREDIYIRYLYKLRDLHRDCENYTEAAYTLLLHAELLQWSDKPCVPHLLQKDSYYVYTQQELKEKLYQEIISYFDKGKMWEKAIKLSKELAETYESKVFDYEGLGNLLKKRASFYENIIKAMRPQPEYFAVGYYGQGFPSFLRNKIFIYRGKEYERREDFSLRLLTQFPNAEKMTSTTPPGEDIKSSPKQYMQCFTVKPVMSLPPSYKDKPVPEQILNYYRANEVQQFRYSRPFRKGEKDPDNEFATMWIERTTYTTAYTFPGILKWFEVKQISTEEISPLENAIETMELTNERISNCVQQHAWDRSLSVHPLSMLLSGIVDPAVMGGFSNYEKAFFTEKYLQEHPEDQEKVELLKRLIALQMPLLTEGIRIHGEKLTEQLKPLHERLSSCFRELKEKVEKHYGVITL
# Test details: Pull down assay of Rac activation by human Dock5 DHR2 in transfected 293T cells
# Type: cell-based
# Condition: HEK-293T, Table 2; human Dock5 DHR2; test concentration 100 µM, 1 hour; replicate values; Negative = Rac activation does not decrease; read-out: Inhibition
Measure name: inhibition at 100 µM (%)
The reply should contain only the number, in %.

Known inhibition at 100 µM results, listed for orientation:
Lookup: Fill blank: measured inhibition at 100 µM of the compound O=S1(=O)N(c2ccccc2)C[C@H](O)[C@]12CCN(Cc1ccc3ccccc3c1)C2 is ____.
Found: 70

Lookup: // next record O=S1(=O)N(c2ccccc2)C[C@H](O)[C@]12CCN(Cc1cccc(C(F)(F)F)c1)C2
Found: 90

Lookup: Same question for CN1C[C@H](Oc2ccccn2)[C@]2(CCN(Cc3ccccc3)C2)S1(=O)=O please.
Found: 10

Lookup: Same question, CC(=O)N1CC[C@@]2(C1)[C@@H](O)CN(c1ccccc1)S2(=O)=O this time
Found: 5

Lookup: What do you get for CS(=O)(=O)N1CC[C@@]2(C1)[C@@H](O)CN(c1ccccc1)S2(=O)=O ?
Found: 30

Lookup: Follow-up item: O=S1(=O)N(c2ccccc2)C[C@H](O)[C@]12CCNC2
Found: 10

Lookup: What do you have for O=S1(=O)N(c2ccccc2)C[C@H](O)[C@]12CCN(CCc1ccccc1)C2 ?
Found: 25

Lookup: Record: Cc1cc(C(=O)N2CC[C@@]3(C2)[C@@H](O)CN(c2ccccc2)S3(=O)=O)no1
Found: 30

Lookup: Try this compound too: COC(=O)c1ccc(CN2CC[C@@]3(C2)[C@H](O)CN(c2ccccc2)S3(=O)=O)cc1
Found: 50

From here, focus on the item given below.
Lookup: Can you look up the measured inhibition at 100 µM of O=S1(=O)N(c2ccccc2)C[C@@H](O)[C@]12CCN(Cc1ccccc1)C2 for me?
Found: 25
